# Tested on: HCT-116
# Assay remarks: NCI tumour cell line growth inhibition, 48 h
Where a name gives a salt, the structure may show the parent alone. Activity calls are given as the source filed them. Cut-off read from the data, not from the text of the source: active = GI50 up to about 1.1 µM and inactive = higher.
Known GI50 of a selection of compounds

| Compound | Assay system | GI50 |
| --- | --- | --- |
| Cc1cc(N(CCC#N)CCC#N)ccc1C(=N/NC(=O)c1cc(Cl)ccc1O)/N=N/c1cccc(Cl)c1 | HCT-116 | 12.2 µM (inactive) |
| CC(=O)Oc1ccc(C2SCc3nc4ccccc4n32)cc1 (stereo not given) | HCT-116 | 23.3 µM (inactive) |
| CC1(C)OCC(C(O)C2OC(C)(C)OC2C=O)O1 (stereo not given) | HCT-116 | > 100 µM (inactive) |
| c1ccc(-c2nnc3nn4c(-c5ccccc5)cnnc4c3c2-c2ccccc2)cc1 | HCT-116 | 63.4 µM (inactive) |
| COc1ccc(-c2c3c(n(C4OC(COC(C)=O)C(OC(C)=O)C(OC(C)=O)C4OC(C)=O)c(=S)c2C#N)CCC3)cc1 (stereo not given) | HCT-116 | > 100 µM (inactive) |
| C#Cc1cccc(Nc2ncnc3cc(OCCOC)c(OCCOC)cc23)c1 [ERLOTINIB HYDROCHLORIDE] | HCT-116 | 6.05 µM (inactive) |
| CC[N+]1(C)CCC(O)(/C=C/c2ccccc2)C(C(=O)/C=C/c2ccccc2)C1 (stereo not given) | HCT-116 | 6 µM (inactive) |
| Cc1nn2c(=O)c([N+](=O)[O-])c(/C=C/c3ccco3)nc2s1 | HCT-116 | 36.3 µM (inactive) |
| CCN1CCC(O)(c2ccc(Cl)cc2)C(C(=O)c2ccc(Cl)cc2)C1 (stereo not given) | HCT-116 | > 100 µM (inactive) |
| Cc1cn(C2CC(SCCO)C(CO)O2)c(=O)[nH]c1=O (stereo not given) | HCT-116 | > 100 µM (inactive) |
| COc1cccc(C2c3cc4c(cc3OC(Nc3ccccc3)C2C)OCO4)c1O (stereo not given) | HCT-116 | 7.6 µM (inactive) |
| CC(=O)Nc1ccccc1-c1nc2ccccc2nc1C | HCT-116 | > 100 µM (inactive) |
| C[C@H]1COC2(c3ccccc3)CCC(=O)N12 (stereo not given in full) | HCT-116 | > 100 µM (inactive) |
| C=CCN1C(=O)/C(=C/c2ccccc2)N=C1SC1OC(COC(C)=O)C(OC(C)=O)C(OC(C)=O)C1OC(C)=O (stereo not given) | HCT-116 | 22.8 µM (inactive) |
| CN1CCc2cc(N)cc3c2C1Cc1ccc2c(c1-3)OCO2 (stereo not given) | HCT-116 | 27.7 µM (inactive) |
| CSc1nc(NC2OCC(OC(C)=O)C(OC(C)=O)C2OC(C)=O)c(/N=C(\C)C(C)=O)c(=O)n1C (stereo not given) | HCT-116 | > 100 µM (inactive) |
| C=CCOC1(CC=C)C(=O)OC2C(O)COC21O (stereo not given) | HCT-116 | > 100 µM (inactive) |
| O=C1CSC2(CC(/C=C/c3cccc([N+](=O)[O-])c3)=NN2c2cccc(S(=O)(=O)O)c2)N1c1nc2ccccc2s1 (stereo not given) | HCT-116 | 32.6 µM (inactive) |
| CCN1CCCn2c(=O)[nH]c3cc(Br)cc1c32 | HCT-116 | > 100 µM (inactive) |
| CCc1nc(N)nc(N)c1-c1ccc(Cl)cc1 [PYRIMETHAMINE] | HCT-116 | 6.14 µM (inactive) |
